test system: HEK-293T; test: Incucyte cell viability with HEK293T; format: toxicity, cell-based; details: human, 6 h, 10 µM, compound concentration 10 uM, replicate number 1, timepoint 6 hours; also: unitless GR value; below 1 slowed growth and below 0 cell loss
Friendly reminder: Growth Rate below 0.3 is true (1), at or above is false (0).

Worked examples follow.
- COC(=O)[C@H]1[C@H]2C[C@H]3c4[nH]c5ccccc5c4CCN3C[C@H]2CC[C@@H]1O.Cl [RAUWOLSCINE HYDROCHLORIDE]: false (0)
- Cc1c(C(=O)Nc2ccc(N3C[C@@H](C)O[C@@H](C)C3)nc2)cccc1-c1ccc(OC(F)(F)F)cc1: true (1)
- O=C(c1cc(C2CC2)on1)N(C1CCCCC1)C1CCCCC1: true (1)
- CSc1cc2c(cc1C(F)(F)F)N(C(=O)Nc1cccnc1)CC2: false (0)
- COc1c(Nc2ccc(S(C)(=O)=O)nc2C)ncnc1OC1CCN(C(=O)OC(C)C)CC1: true (1)

Problem: For the molecule C[N+]1(C)[C@@H]2C[C@@H](OC(=O)C(O)(c3cccs3)c3cccs3)C[C@H]1[C@@H]1O[C@@H]12.O.[Br-] [TIOTROPIUM BROMIDE] , is Growth Rate under 0.3?
false (0)

And the next one, "OCCCNc1cc(-c2ccnc(Nc3cccc(Cl)c3)n2)ccn1" ?
true (1)

And the next one, "Cc1nc(C#Cc2cccnc2)cs1.Cl" ?
false (0)

And the next one, "Cc1nn(C)c(C)c1-c1cccc2c1CC[C@H](N(C)C)C2" ?
false (0)

----------
system: U2OS; experiment: Incucyte cell viability with U2OS; type: toxicity, cell-based; settings: human, 18 h, 10 µM, compound concentration 10 uM, replicate number 1, timepoint 18 hours; also: unitless GR value; below 1 slowed growth and below 0 cell loss
Respond with MET for Growth Rate values of 0.8 and above, NOT MET for values below.

Worked examples follow.
* Cc1cc(=O)n(C)c2cc(N3C(=O)CC[C@H](NS(=O)(=O)CC(C)C)[C@H]3c3ccc(Cl)cc3)ccc12 | NOT MET
* Cc1cc(CN)cc(C)c1-c1ncn(C)c1-c1cncn1C | NOT MET
* Cl.Cl.NCCc1c[nH]cn1 [HISTAMINE DIHYDROCHLORIDE] | NOT MET
* NCCc1c[nH]c2ccc(C(N)=O)cc12.O=C(O)/C=C\C(=O)O | MET
* O=C(O)c1nc2ccccc2c2[nH]c3c(I)cccc3c12 | MET

Check this compound for Growth Rate at or above 0.8: "CCc1cc2c(cc1-c1cccc(S(=O)(=O)F)c1)C(C)(C)c1[nH]c3cc(C#N)ccc3c1C2=O"
NOT MET

And the next one, "CCCCC[C@H](O)/C=C/[C@H]1[C@H](O)CC(=O)[C@@H]1CCCCCCC(=O)O" ?
NOT MET

----------
test system: HEK-293T; test: Incucyte cell viability with HEK293T; assay type: toxicity, cell-based; conditions: human, 24 h, 10 µM, compound concentration 10 uM, replicate number 2, timepoint 24 hours; also: unitless GR value; below 1 slowed growth and below 0 cell loss
Respond with rule met for Growth Rate values of 0.8 and above, rule not met for values below.

Worked examples follow.
• O=C(Nc1cc(C(F)(F)F)ccc1N1CCN(Cc2ccccn2)CC1)c1ccc(-c2ccncc2)o1 = rule not met
• C[C@@H](c1ccc(F)cc1)n1nnc2cnc3ccc(-c4ccc5ocnc5c4)cc3c21 = rule not met
• CN(C)C(=O)N1CC[C@H](NC2=Nc3cc(F)ccc3N(CC(F)F)c3ccc(Cl)cc32)C1 = rule met

Please look at the following compound next.
Check this compound for Growth Rate at or above 0.8: "NC(=O)c1cccc(-c2cc(Nc3ccc(OC(F)(F)F)cc3)ncn2)c1"
rule not met

----------
test system: Fibroblast; experiment: Incucyte cell viability with human fibroblast; assay type: toxicity, cell-based; conditions: 12 h, 10 µM, compound concentration 10 uM, replicate number 1, timepoint 12 hours; also: unitless GR value; below 1 slowed growth and below 0 cell loss
Where a SMILES comes first, the peptide text is derived from it. [ ]: non-standard residue; d: D form.
Friendly reminder: Growth Rate below 0.6 is yes, at or above is no.

• N=C(N)NCCC[C@H](NC(=O)COCC(c1ccccc1)c1ccccc1)C(=O)O.O=C(O)C(F)(F)F = no
• CC(C)C[C@@H]1NC(=O)[C@@H](C(C)C)NC(=O)[C@@H]2CCCN2C(=O)[C@@H](CC(=O)O)NC(=O)[C@@H](Cc2c[nH]c3ccccc23)NC1=O [BQ-123] (cyclo(L[dW][dD]P[dV])) = no
• N=C(N)NCCC[C@@H](NC(=O)C(c1ccccc1)c1ccccc1)C(=O)NCc1ccc(CNC(N)=O)cc1.O=C(O)C(F)(F)F.O=C(O)C(F)(F)F = yes
• C[C@]1(O)CC[C@H]2[C@@H]3CCC4=CC(=O)CCC4=C3C=C[C@@]21C [METRIBOLONE] = no
• CN(c1ncccc1CNc1ccnc(-c2cc3cc(Cl)ccc3[nH]2)n1)S(C)(=O)=O = yes
• CC[C@H]1OC(=O)[C@H](C)[C@@H](O[C@H]2C[C@@](C)(OC)[C@@H](O)[C@H](C)O2)[C@H](C)[C@@H](O[C@@H]2O[C@H](C)C[C@H](N(C)C)[C@H]2O)[C@@]2(C)CC(C)=C(O2)[C@H](C)[C@@H](O)[C@]1(C)O = yes

Problem: For the compound "Cc1cc(OCCCS(C)(=O)=O)cc(C)c1-c1cccc(COc2ccc3c(c2)OC[C@H]3CC(=O)O)c1" , is Growth Rate under 0.6?
no

----------
test system: U2OS; experiment: Incucyte cell viability with U2OS; format: toxicity, cell-based; details: human, 18 h, 10 µM, compound concentration 10 uM, replicate number 2, timepoint 18 hours; also: unitless GR value; below 1 slowed growth and below 0 cell loss
readout_kind: Growth Rate
Reply briefly: the number, and no unit.

• COc1cc(Br)c(S(=O)(=O)Nc2ccc(C(F)(F)F)c(O[C@@H]3CCN(C)C3)c2)cc1OC = 1
• N[C@@H](CCP(=O)(O)O)C(=O)O = 0.78
• Oc1c(CN2CCN(c3ccccn3)CC2)cc(Cl)c2cccnc12 = 0.1

May I ask what Growth Rate has been recorded for "S=C(NCCCc1c[nH]cn1)NCCCN(Cc1ccc(Cl)c(Cl)c1)c1ccc(Br)cn1" ?
0.68

And the next one, "CC(C)(C)c1cc(NC(=O)Nc2ccc(-c3cn4c(n3)sc3cc(OCCN5CCOCC5)ccc34)cc2)no1" ?
0.52

And the next one, CCC(=O)OCC(=O)[C@@]1(OC(=O)CC)[C@@H](C)C[C@H]2[C@@H]3CCC4=CC(=O)C=C[C@]4(C)[C@@]3(Cl)[C@@H](O)C[C@@]21C [BECLOMETHASONE DIPROPIONATE] ?
0.81

And the next one, "O=C(Nc1cc(-c2ccccc2)nn1-c1ccccc1F)c1ccc([N+](=O)[O-])cc1" ?
0.9

And the next one, "CCCCC1=NC2(CCCC2)C(=O)N1Cc1ccc(-c2ccccc2-c2nnn[nH]2)cc1" ?
0.95

And the next one, "Cc1cc(C)cc([C@@H]2c3cc(C)ccc3NC(=O)CN2C(=O)c2ccc(Br)s2)c1" ?
0.81

And the next one, COC(=O)N1CCN(C(=O)Cc2ccc(Cl)c(Cl)c2)C(CN2CCCC2)C1.O=C(O)/C=C/C(=O)O (stereo not drawn) ?
0.75

And the next one, "CCNC1(C(N)=O)CCN(c2ncnc3c2nc(-c2ccccc2Cl)n3-c2ccc(Cl)cc2)CC1" ?
0.92

And the next one, "Cc1ccc(F)cc1C(=O)Nc1ccc(C(=O)N2Cc3cccn3Cc3ccccc32)c(Cl)c1" ?
0.89

And the next one, "Cc1noc(-c2ccc(-c3ccc(CC(=O)O)cc3)cc2)c1NC(=O)O[C@H](C)c1ccccc1Cl" ?
0.93

And the next one, "CCCOc1ccc2[nH]cc(C3=CCNCC3)c2n1.Cl" ?
0.95

And the next one, "COCCN1CCC(c2cc(CN(C)C(=O)c3cccc(Oc4ccccc4)c3)ccn2)CC1" ?
0.97

And the next one, "COc1ncc2cc(C(=O)Nc3cc(C(=O)NCc4cccc(Cl)c4)ccc3Cl)c(=O)[nH]c2n1" ?
0.67

And the next one, "CCc1cc2cc(NS(=O)(=O)c3ccc(C#N)cc3)ccc2n(CC)c1=O" ?
0.93

And the next one, CCCCCC(O)/C=C/[C@H]1C(=O)CC(O)C1C/C=C\CCCC(=O)O (stereo partly drawn) ?
0.78

----------
Examples of molecules with documented Growth Rate follow.
test system: Fibroblast; assay: Incucyte cell viability with human fibroblast; assay type: toxicity, cell-based; details: 24 h, 10 µM, compound concentration 10 uM, replicate number 1, timepoint 24 hours; also: unitless GR value; below 1 slowed growth and below 0 cell loss
Reply briefly: the number, and no unit.

Check out these entries, answers already filled in.
• Cc1ccc(/C(=C\CN2CCCC2)c2ccccn2)cc1 = 0.88
• N#Cc1cc2c(OCC(O)CN3CCN(C(c4ccccc4)c4ccccc4)CC3)cccc2[nH]1 (racemic) = 0.24
• CO/C1=C/C(C)=C\[C@@H](C)[C@@H](O)[C@@H](C)C/C(C)=C\C=C/[C@H](OC)C([C@@H](C)[C@@H](O)[C@H](C)[C@@]2(O)C[C@@H](O)[C@H](C)[C@@H](C(C)C)O2)OC1=O (stereo partly drawn) = -0.61

Reported Growth Rate for Fibroblast, given "CN[C@@H](C)C(=O)N[C@H](C(=O)N1CCC[C@H]1C(=O)Nc1snnc1-c1ccccc1)C1CCCCC1" ?
-0.44

And the next one, COc1cc2nc(N3CCN(C(=O)c4ccco4)CC3)nc(N)c2cc1OC.Cl [PRAZOSIN HYDROCHLORIDE] ?
0.44

And the next one, "Cc1nccc(COC(=O)N2C[C@@H]3[C@@H](CNC(=O)c4ccc5[nH]nnc5c4)[C@@H]3C2)n1" ?
0.68

And the next one, "COc1ccc(C(=O)N2CCN(C(=O)/C=C/c3ccc(Br)cc3)CC2)cc1" ?
0.08

And the next one, "CNc1nc(NCc2ncccn2)c2c(-c3ccc4ncccc4c3)c[nH]c2n1" ?
0.06
